Target: cloned human GLP-1 receptor (Homo sapiens, UniProt P43220)
Sequence (P43220 24-463): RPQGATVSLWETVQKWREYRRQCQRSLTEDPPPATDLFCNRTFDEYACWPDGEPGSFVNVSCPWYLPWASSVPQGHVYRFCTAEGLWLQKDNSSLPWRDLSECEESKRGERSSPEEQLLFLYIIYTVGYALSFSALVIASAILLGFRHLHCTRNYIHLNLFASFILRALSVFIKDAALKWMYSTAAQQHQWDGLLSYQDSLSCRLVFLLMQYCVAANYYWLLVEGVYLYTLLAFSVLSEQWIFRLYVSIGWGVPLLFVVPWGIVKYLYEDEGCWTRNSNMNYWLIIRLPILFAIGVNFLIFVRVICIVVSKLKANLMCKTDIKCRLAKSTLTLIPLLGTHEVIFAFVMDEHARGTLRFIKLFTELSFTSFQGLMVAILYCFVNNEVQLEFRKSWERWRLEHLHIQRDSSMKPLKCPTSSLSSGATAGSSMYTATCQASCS
Test: Functional cell-based assay: cAMP functional assay
quantityName: pEC50
Conceptually, pEC50 converts a concentration in mol/L into minus its log10.

Reference set, count: 3
| compound | pEC50 |
| --- | --- |
| N#Cc1ccc(-c2ccc(C[C@H](NC(=O)[C@@H]3Cc4cc5c(cc4CN3Cc3ccccc3)OC(c3ccc(OCc4ccc(Cl)c(Cl)c4)cc3)C(=O)N5)C(=O)O)cc2)cc1 (stereo partly shown) | 6.80 |
| CN(C)C(=O)N1Cc2cc3c(cc2C[C@H]1C(=O)N[C@@H](Cc1ccc(-c2ccc(C#N)cc2)cc1)C(=O)O)NC(=O)C(c1ccc(OCc2ccc(Cl)c(Cl)c2)cc1)O3 (stereo partly shown) | 5.89 |
| Cc1ccccc1S(=O)(=O)N1Cc2cc3c(cc2C[C@H]1C(=O)N[C@@H](Cc1ccc(-c2ccc(C#N)cc2)cc1)C(=O)O)NC(=O)C(c1ccc(OCc2ccc(Cl)c(Cl)c2)cc1)O3 (stereo partly shown) | 6.31 |

I would be grateful if you could share the reported pEC50 for N#Cc1ccc(-c2ccc(C[C@H](NC(=O)[C@@H]3Cc4cc5c(cc4CN3C(=O)c3ccccn3)OC(c3ccc(OCc4ccc(Cl)c(Cl)c4)cc3)C(=O)N5)C(=O)O)cc2)cc1 (stereo partly shown) .
5.91

---

Target: cloned human GLP-1 receptor (Homo sapiens)
Construct: expressed in transfected cells; host or cells: CHO or HEK-293 cells
Experiment: Functional cell-based assay: cAMP functional assay
Conditions: 0.5 h; percentage relative to maximal GLP-1-induced cAMP accumulation; na = not active in the assay; read-out: % activation
Lab note: compare Emax against 50%. Equal or greater, write MET. Smaller, write NOT MET.

| compound | qualitativeLabel |
| --- | --- |
| N#Cc1ccc(-c2ccc(C[C@H](NC(=O)[C@@H]3Cc4cc5c(cc4CN3S(=O)(=O)c3cccc([N+](=O)[O-])c3)OC(c3ccc(OCc4ccc(Cl)c(Cl)c4)cc3)C(=O)N5)C(=O)O)cc2)cc1 (some centres unmarked) | NOT MET |

Check this compound for Emax at or above 50%: CN1C(=O)C(c2ccc(OCc3ccc(Cl)c(Cl)c3)cc2)Oc2cc3c(cc21)C[C@@H](C(=O)N[C@@H](Cc1ccc(-c2ccc(C#N)cc2)cc1)C(=O)O)N(CC1(c2ccccc2)CCCC1)C3 (some centres unmarked)
MET

And for N#Cc1ccc(-c2ccc(C[C@H](NC(=O)[C@@H]3Cc4cc5c(cc4CN3C(=O)c3ccccc3)OC(c3ccc(OCc4ccc(Cl)c(Cl)c4)cc3)C(=O)N5)C(=O)O)cc2)cc1 (some centres unmarked) ?
MET

And for N#Cc1ccc(-c2ccc(C[C@H](NC(=O)[C@@H]3Cc4cc5c(cc4CN3C(=O)c3cccs3)OC(c3ccc(OCc4ccc(Cl)c(Cl)c4)cc3)C(=O)N5)C(=O)O)cc2)cc1 (some centres unmarked) ?
NOT MET

---

Biological target: cloned human GLP-1 receptor (Homo sapiens, UniProt P43220)
Experiment: Functional cell-based assay: cAMP functional assay
Note that class boundaries on EC50 are lower: < 400 nM; middle: ≥ 400 nM and < 1000 nM; upper: ≥ 1000 nM

| compound | qualitativeLabel |
| --- | --- |
| CN1C(=O)C(c2ccc(OCc3ccc(Cl)c(Cl)c3)cc2)Oc2cc3c(cc21)C[C@@H](C(=O)N[C@@H](Cc1ccc(-c2ccc(C#N)cc2)cc1)C(=O)O)N(C1CCCC1)C3 (stereo partly shown) | lower |

Categorize the following entry: N#Cc1ccc(-c2ccc(C[C@H](NC(=O)[C@@H]3Cc4cc5c(cc4CN3CC#Cc3ccsc3)OC(c3ccc(OCc4ccc(Cl)c(Cl)c4)cc3)C(=O)N5)C(=O)O)cc2)cc1 (stereo partly shown)
lower

And for N#Cc1ccc(-c2ccc(C[C@H](NC(=O)[C@@H]3Cc4cc5c(cc4CN3C(=O)c3c(F)cc(F)cc3F)OC(c3ccc(OCc4ccc(Cl)c(Cl)c4)cc3)C(=O)N5)C(=O)O)cc2)cc1 (stereo partly shown) ?
middle

And for N#Cc1ccc(-c2ccc(C[C@H](NC(=O)[C@@H]3Cc4cc5c(cc4CN3CCc3ccccc3)OC(c3ccc(OCc4ccc(Cl)c(Cl)c4)cc3)C(=O)N5)C(=O)O)cc2)cc1 (stereo partly shown) ?
upper

And for N#Cc1ccc(-c2ccc(C[C@H](NC(=O)[C@@H]3Cc4cc5c(cc4CN3Cc3ccccc3)OC(c3ccc(OCc4cnc(Cl)c(Cl)c4)cc3)C(=O)N5)C(=O)O)cc2)cc1 (stereo partly shown) ?
lower

And for N#Cc1ccc(-c2ccc(C[C@H](NC(=O)[C@@H]3Cc4cc5c(cc4CN3C(=O)C3CCCC3)OC(c3ccc(OCc4ccc(Cl)c(Cl)c4)cc3)C(=O)N5)C(=O)O)cc2)cc1 (stereo partly shown) ?
middle

And for N#Cc1ccc(-c2ccc(C[C@H](NC(=O)[C@@H]3Cc4cc5c(cc4CN3C(=O)[C@@H]3CCCO3)OC(c3ccc(OCc4ccc(Cl)c(Cl)c4)cc3)C(=O)N5)C(=O)O)cc2)cc1 (stereo partly shown) ?
upper

And for N#Cc1ccc(-c2ccc(C[C@H](NC(=O)[C@@H]3Cc4cc5c(cc4CN3C(=O)c3cccnc3)OC(c3ccc(OCc4ccc(Cl)c(Cl)c4)cc3)C(=O)N5)C(=O)O)cc2)cc1 (stereo partly shown) ?
upper
